The measured values listed here are drawn from patent US20100260765A1.

# maps each entry to its % Inhibition of VEGF165-mediated pTyr Activity, n = 2
# TARGET_SYSTEM: human KDR (VEGFR2) on cells (human, UniProt P35968 20-1356); note: test concentration or dose not given here
# Sequence (P35968 20-1356): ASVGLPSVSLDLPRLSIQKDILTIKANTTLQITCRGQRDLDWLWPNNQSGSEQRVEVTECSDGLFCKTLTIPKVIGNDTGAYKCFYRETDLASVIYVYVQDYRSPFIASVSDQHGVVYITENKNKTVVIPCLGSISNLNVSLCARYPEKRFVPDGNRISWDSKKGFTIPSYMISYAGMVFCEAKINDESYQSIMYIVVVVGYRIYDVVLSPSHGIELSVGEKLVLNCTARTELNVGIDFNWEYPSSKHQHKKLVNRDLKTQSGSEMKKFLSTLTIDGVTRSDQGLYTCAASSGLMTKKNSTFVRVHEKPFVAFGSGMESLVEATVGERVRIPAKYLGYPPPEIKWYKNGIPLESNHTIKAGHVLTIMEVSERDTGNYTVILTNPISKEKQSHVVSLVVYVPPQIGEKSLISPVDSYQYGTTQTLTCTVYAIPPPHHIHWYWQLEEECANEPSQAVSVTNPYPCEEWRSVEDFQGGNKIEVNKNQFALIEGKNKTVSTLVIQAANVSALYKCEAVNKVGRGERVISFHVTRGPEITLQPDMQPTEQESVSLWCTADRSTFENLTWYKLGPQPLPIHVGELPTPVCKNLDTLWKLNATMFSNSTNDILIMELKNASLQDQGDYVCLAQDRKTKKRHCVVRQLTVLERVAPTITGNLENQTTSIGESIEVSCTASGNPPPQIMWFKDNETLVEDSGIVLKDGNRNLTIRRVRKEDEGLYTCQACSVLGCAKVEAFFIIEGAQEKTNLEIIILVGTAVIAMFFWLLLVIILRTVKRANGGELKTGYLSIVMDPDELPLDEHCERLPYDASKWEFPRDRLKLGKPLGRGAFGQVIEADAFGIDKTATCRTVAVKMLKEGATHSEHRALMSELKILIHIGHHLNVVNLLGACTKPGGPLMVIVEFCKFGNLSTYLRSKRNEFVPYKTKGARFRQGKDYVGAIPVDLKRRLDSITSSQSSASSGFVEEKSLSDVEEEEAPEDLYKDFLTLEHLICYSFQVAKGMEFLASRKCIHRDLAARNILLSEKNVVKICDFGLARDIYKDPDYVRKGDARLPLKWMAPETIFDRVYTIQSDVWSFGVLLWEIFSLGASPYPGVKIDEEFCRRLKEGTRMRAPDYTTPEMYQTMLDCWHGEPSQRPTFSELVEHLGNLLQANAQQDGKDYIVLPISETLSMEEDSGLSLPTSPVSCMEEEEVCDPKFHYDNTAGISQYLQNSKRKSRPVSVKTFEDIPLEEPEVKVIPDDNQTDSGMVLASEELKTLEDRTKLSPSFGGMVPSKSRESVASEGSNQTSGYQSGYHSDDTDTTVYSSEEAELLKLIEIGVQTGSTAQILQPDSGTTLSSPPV
# TEST_NAME: cell-based or functional assay
VALUE_TYPE: % Inhibition of VEGF165-mediated pTyr Activity, n = 2 (%)

BINDER	TEST_RESULT
anti-KDR monoclonal antibody 21H9 (antibody, V domains shown, Fully human mAb from XenoMouse (IgG2 or IgG4 strain); hybridoma supernatant) VH: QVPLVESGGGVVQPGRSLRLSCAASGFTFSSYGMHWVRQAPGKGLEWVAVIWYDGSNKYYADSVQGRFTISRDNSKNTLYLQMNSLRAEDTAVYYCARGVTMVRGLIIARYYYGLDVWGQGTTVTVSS VL: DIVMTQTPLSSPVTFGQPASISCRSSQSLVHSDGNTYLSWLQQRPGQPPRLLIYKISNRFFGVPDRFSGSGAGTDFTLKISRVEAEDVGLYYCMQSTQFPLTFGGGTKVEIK	70
anti-KDR monoclonal antibody 24B3 (antibody, V domains shown, Fully human mAb from XenoMouse (IgG2 or IgG4 strain); hybridoma supernatant) VH: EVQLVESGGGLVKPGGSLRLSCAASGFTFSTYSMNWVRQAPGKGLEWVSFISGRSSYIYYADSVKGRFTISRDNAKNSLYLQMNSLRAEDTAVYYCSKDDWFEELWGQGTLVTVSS VL: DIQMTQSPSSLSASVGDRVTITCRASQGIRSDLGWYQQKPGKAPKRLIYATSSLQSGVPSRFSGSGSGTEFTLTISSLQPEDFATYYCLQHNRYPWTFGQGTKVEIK	51
